Reference source for all entries: patent US20170354129A1

# experimental-system: T1, fully oxidized LDL (UniProt P04114 28-4563, oxidatively modified with copper for 20 hours at 37 C (sites not given))
# T1 construct: Lipoprotein particle; also called fuOxLDL; FoxLDL
# T1 sequence (P04114 28-4563): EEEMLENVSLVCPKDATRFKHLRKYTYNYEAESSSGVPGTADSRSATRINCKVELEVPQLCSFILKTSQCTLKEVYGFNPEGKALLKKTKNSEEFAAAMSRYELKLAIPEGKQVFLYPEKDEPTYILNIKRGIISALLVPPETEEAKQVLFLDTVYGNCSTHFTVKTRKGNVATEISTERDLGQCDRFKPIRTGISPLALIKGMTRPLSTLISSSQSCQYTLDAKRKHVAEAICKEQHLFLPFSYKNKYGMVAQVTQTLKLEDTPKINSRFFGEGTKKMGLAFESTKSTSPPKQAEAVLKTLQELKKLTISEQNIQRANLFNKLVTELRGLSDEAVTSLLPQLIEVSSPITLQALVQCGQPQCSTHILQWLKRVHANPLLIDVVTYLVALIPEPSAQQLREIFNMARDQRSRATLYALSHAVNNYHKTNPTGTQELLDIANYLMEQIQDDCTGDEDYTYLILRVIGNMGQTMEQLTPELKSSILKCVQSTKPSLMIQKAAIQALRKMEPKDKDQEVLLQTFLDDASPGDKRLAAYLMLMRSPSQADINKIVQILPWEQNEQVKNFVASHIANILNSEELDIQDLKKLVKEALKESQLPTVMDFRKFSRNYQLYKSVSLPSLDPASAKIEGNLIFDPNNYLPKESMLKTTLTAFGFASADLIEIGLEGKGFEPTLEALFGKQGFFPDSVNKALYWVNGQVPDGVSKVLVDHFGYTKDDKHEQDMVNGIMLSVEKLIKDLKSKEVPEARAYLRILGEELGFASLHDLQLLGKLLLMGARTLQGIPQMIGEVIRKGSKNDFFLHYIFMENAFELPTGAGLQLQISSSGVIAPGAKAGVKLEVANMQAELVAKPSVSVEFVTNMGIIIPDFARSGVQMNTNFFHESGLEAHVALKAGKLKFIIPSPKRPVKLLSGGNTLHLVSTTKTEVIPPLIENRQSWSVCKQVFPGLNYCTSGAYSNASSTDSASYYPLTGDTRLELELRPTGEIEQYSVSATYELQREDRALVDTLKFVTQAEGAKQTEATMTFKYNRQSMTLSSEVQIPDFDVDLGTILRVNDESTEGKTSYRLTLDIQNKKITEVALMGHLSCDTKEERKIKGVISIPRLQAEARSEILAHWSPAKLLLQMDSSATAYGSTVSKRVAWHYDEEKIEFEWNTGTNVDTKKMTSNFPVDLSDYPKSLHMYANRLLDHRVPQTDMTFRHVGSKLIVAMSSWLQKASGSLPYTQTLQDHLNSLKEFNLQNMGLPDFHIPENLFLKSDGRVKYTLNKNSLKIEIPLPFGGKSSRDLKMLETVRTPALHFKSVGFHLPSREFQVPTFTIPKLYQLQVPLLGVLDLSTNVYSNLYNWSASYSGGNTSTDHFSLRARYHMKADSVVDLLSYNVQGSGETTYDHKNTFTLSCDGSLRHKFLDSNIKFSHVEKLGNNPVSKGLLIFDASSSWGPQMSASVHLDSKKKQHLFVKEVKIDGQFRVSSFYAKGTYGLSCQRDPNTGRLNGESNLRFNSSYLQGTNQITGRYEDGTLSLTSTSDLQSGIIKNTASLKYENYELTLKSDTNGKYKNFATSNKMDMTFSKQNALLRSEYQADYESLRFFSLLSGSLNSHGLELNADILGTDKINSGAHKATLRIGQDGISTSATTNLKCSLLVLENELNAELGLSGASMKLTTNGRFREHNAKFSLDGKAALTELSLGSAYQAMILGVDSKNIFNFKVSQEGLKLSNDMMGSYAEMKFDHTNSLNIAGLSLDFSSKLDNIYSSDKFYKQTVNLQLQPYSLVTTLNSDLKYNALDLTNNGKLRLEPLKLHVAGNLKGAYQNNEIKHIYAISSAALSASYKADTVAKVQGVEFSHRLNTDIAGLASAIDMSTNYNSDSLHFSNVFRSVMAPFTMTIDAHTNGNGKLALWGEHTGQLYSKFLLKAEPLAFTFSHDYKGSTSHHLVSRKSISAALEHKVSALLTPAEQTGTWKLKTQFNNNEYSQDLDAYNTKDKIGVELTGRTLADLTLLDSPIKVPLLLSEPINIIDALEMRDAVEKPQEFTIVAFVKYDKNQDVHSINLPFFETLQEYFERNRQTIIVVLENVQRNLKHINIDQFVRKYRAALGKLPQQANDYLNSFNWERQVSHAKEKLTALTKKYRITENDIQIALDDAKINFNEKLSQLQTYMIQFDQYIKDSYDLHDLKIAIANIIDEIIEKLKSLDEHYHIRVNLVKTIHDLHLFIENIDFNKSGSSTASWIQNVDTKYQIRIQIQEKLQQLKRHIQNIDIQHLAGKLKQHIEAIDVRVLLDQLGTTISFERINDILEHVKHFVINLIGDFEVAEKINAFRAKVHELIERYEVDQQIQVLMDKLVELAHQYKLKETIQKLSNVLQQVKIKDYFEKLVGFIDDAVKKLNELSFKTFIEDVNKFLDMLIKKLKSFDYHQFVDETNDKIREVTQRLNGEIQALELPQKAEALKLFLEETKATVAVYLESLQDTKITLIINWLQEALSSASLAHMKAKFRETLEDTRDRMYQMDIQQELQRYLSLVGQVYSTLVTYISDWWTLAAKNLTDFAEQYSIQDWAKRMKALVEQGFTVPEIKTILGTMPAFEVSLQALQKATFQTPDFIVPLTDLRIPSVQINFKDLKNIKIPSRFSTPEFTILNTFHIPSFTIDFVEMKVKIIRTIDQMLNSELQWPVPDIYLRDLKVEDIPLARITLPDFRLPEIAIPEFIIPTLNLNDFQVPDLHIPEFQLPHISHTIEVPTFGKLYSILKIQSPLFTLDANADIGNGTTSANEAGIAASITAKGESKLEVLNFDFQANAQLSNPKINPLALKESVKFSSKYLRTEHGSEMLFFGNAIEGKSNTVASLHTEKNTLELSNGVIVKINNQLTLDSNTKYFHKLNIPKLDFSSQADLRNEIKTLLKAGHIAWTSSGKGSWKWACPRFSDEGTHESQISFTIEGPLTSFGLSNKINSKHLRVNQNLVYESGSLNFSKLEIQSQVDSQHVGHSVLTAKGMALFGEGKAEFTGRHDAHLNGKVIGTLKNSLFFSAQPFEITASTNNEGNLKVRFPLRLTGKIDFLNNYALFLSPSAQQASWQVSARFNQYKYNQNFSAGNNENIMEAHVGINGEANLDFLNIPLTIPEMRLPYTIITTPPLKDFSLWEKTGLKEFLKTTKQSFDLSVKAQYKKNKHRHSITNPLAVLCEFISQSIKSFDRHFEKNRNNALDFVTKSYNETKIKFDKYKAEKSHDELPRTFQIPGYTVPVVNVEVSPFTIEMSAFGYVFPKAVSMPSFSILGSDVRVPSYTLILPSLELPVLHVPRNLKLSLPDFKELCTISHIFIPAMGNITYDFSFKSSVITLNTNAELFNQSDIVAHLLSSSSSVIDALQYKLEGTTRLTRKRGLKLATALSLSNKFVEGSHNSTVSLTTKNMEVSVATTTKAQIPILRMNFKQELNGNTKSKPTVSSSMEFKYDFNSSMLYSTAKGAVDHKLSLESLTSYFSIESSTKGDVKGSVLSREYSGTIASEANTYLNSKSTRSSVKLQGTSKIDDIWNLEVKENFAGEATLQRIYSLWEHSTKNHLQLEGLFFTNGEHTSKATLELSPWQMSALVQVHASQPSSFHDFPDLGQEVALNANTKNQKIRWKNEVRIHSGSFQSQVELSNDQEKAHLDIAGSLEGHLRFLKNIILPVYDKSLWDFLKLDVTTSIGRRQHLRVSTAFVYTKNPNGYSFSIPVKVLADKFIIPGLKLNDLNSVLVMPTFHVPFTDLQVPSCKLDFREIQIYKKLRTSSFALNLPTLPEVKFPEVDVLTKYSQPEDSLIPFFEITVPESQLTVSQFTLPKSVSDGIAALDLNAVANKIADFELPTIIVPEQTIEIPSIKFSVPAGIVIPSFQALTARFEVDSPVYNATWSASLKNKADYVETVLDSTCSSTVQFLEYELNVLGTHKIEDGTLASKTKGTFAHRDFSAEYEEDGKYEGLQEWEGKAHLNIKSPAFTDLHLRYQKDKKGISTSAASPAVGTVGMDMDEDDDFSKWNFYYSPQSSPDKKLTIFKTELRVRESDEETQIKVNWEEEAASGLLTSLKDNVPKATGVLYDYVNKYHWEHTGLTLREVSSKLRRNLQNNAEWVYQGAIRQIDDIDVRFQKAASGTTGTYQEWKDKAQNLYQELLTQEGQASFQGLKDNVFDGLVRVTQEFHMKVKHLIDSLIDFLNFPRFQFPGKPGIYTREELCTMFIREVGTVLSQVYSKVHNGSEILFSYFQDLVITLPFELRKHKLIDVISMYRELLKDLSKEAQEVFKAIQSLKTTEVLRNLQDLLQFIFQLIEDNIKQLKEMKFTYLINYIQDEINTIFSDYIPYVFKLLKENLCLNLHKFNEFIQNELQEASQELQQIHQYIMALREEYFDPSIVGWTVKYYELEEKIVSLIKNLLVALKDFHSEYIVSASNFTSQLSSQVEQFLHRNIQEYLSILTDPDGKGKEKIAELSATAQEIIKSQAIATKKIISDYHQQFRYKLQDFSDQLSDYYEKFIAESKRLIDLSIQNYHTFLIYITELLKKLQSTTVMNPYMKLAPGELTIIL
# method-notes: phage ELISA on oxidized LDL
assay-readout: A450

The recorded A450 for entry single chain antibody γ+κ 12, pCANTAB5E clone 12 (phage presented and soluble forms) (scFv, not shown: C-terminal E tag from pCANTAB5E) scFv: MAQVQLQQSGPGLVKPSQTLSLTCDISGDSISTNGAAWNWIRQSPSRGLEWLGRTFYRSKWYNDYAVSVKSRMIINPDTSKNQFSLQLSSVTPEDTAVYYCARVACSGGTCLDGIDVWGQGTTVTVSSGGGGSGGGGSGGGGSDIVMTQSPSSLSASVGERVTITCRASQAIRNDLGWYQQKPGKAPKLLVYSASNLQSGVPSRFSGSGSGTDFTLTISSLQPEDFATYYCQQYHSYPRTFSQGTKLEIKR equals ≥ 0.6 A450
